- system-name: human CB1 receptor (Homo sapiens)
- Construct: expressed in transfected cells; host or cells: SK-N-MC cells, stably transfected with pcDNA3 CB-1 (human); semi-purified membrane pellet
- Sequence (P21554 whole entry): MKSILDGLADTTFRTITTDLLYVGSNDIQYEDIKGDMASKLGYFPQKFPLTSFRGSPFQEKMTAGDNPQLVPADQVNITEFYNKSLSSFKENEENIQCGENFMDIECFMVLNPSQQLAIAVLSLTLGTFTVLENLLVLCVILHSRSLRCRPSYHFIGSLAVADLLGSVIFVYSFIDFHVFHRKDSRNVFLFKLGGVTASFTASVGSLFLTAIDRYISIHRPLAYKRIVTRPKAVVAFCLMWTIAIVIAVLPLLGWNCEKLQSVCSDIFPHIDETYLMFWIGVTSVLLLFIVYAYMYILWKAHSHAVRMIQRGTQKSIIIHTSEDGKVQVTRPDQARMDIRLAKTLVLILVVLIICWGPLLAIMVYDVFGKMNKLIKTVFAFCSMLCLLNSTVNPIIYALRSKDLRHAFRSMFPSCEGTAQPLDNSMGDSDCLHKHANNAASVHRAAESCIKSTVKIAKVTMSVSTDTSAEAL
- assay-summary: biochemical
- Type: binding
- Description: Binding Assay for CB1 or CB2 Agonists or Inverse Agonists The human CB1 and CB2 receptors were stably expressed in SK-N-MC cells transfected with pcDNA3 CB-1 (human) or pcDNA3 CB-2 (human). The cells were grown in T-180 cell culture flasks under standard cell culture conditions at 37° C. in a 5% CO2 atmosphere. […] The IC50 binding values for compounds tested were calculated by linear regression and were obtained from studies in which varying compound concentrations were used.
IC50 vs 100 nM: less than gives true (1); not less than gives false (0).

Incoming: Answer whether the compound O=C(NC12CC3CC(CC(C3)C1)C2)c1nn(C2CCCCC2)c2c1CCCC2 has IC50 strictly less than 100 nM
Outgoing: true (1)

Incoming: Answer whether the compound CCOC(=O)[C@@H]1CCCC[C@@H]1NC(=O)c1nn(C2CCCCC2)c2c1CCCC2 has IC50 strictly less than 100 nM
Outgoing: false (0)

Incoming: Answer whether the compound O=C(NCC1CCCCC1)c1nn(C2CCCCC2)c2c1CCCC2 has IC50 strictly less than 100 nM
Outgoing: false (0)

Incoming: Answer whether the compound C[C@H](NC(=O)c1nn(C2CCCCC2)c2c1CCCC2)c1ccccc1 has IC50 strictly less than 100 nM
Outgoing: false (0)

Incoming: Answer whether the compound O=C(NN1CCCC1)c1nn(-c2ccc(Cl)cc2Cl)c2c1CCCC2=Cc1cccs1 has IC50 strictly less than 100 nM
Outgoing: true (1)

Incoming: Answer whether the compound CCOC(=O)C1CCc2c(c(C(=O)NC3C4(C)CCC(C4)C3(C)C)nn2Cc2ccccc2)C1 (centres unmarked) has IC50 strictly less than 100 nM
Outgoing: true (1)

Incoming: Answer whether the compound CCOC(=O)C1CCc2c(C(=O)NC3C4(C)CCC(C4)C3(C)C)nn(C3CCCCC3)c2C1 (centres unmarked) has IC50 strictly less than 100 nM
Outgoing: false (0)
